# experimental_system: Mcl-1/Bim interaction, recombinant human Mcl-1 (171-327) (Homo sapiens)
# Construct: made in house
# Sequence (Q07820 171-327): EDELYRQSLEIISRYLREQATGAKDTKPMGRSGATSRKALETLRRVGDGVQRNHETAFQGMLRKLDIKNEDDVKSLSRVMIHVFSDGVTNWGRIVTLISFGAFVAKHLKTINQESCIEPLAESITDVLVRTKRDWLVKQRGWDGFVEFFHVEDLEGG
# method: Cell free Mcl-1: Bim Affinity Assay (Mcl-1 HTRF)
# Type: binding
# experimental_parameters: TR-FRET, 0.1 nM Mcl-1 (171-327), 0.05 nM biotin-Bim (51-76)
pIC50: −log10 of the molar value.
metric_name: pIC50

// below: answered compounds
compound	experimental_system	metric_name	experimental_value
COC[C@@H]1CC/C=C/[C@H](OC)[C@@H]2CC[C@H]2CN2C[C@@]3(CCCc4cc(Cl)ccc43)COc3ccc(cc32)C(=O)NS1(=O)=O [Example 444]	Mcl-1/Bim interaction, recombinant human Mcl-1 (171-327) (Homo sapiens)	pIC50	9.11
COCCO[C@H]1/C=C/[C@H](C)[C@H](C)[C@@H](C)S(=O)(=O)NC(=O)c2ccc3c(c2)N(C[C@@H]2CC[C@H]21)C[C@@]1(CCCc2cc(Cl)ccc21)CO3 [Example 1048]	Mcl-1/Bim interaction, recombinant human Mcl-1 (171-327) (Homo sapiens)	pIC50	9.52
CC[C@@H]1CC/C=C/[C@H](OCc2nnc(C)o2)[C@@H]2CC[C@H]2CN2C[C@@]3(CCCc4cc(Cl)ccc43)COc3ccc(cc32)C(=O)NS1(=O)=O [Example 966]	Mcl-1/Bim interaction, recombinant human Mcl-1 (171-327) (Homo sapiens)	pIC50	9.46
C=C1CC/C=C/[C@H](O)[C@@H]2CC[C@H]2CN2C[C@@]3(CCCc4cc(Cl)ccc43)COc3ccc(cc32)C(=O)NS1(=O)=O (single isomer, unassigned) [Example 441]	Mcl-1/Bim interaction, recombinant human Mcl-1 (171-327) (Homo sapiens)	pIC50	9.20
COCCOC1C=CCC(C)C(COC)S(=O)(=O)NC(=O)c2ccc3c(c2)N(CC2CCC21)CC1(CCCc2cc(Cl)ccc21)CO3 (single isomer, unassigned) [Example 463]	Mcl-1/Bim interaction, recombinant human Mcl-1 (171-327) (Homo sapiens)	pIC50	9.38

(I) CO[C@H]1/C=C/CCNS(=O)(=O)NC(=O)c2ccc3c(c2)N(C[C@@H]2CC[C@H]21)C[C@@]1(CCCc2cc(Cl)ccc21)CO3 (single isomer, unassigned) [Example 46]
(II) CCO[C@@H]1/C=C/CCCS(=O)(=O)NC(=O)c2ccc3c(c2)N(C[C@@H]2CC[C@H]21)C[C@@]1(CCCc2cc(Cl)ccc21)CO3 [Example 209]
(III) COCCO[C@H]1/C=C/C[C@H](C)[C@H](COC)S(=O)(=O)NC(=O)c2ccc3c(c2)N(C[C@@H]2CC[C@H]21)C[C@@]1(CCCc2cc(Cl)ccc21)CO3 (single isomer, unassigned) [Example 464]
(IV) CCOC(=O)CO[C@H]1/C=C/CC[C@@H](CC)S(=O)(=O)NC(=O)c2ccc3c(c2)N(C[C@@H]2CC[C@H]21)C[C@@]1(CCCc2cc(Cl)ccc21)CO3 [Example 1003]
(V) CC1CC(C)C(C)S(=O)(=O)NC(=O)c2ccc3c(c2)N(CC2CCC2C(O)C1)CC1(CCCc2cc(Cl)ccc21)CO3 (single isomer, unassigned) [Example 259]
Query string: # ascending order, key=pIC50 Return the labels ranked in the requested order, please.
Result string: V, II, III, IV, I
(V: 7.35, II: 8.28, III: 8.83, IV: 9.07, I: 9.43)
